- Target of assay: cMBD2 MBD K19W (Gallus gallus (chicken), UniProt Q5EFL0 2-71, K18W)
- Procedure summary: SPR
Recorded metric: pKd
pKd here is simply -log10 of the concentration when that concentration is written in mol/L.

Quick check: pKd of rho-globin mCpG WT 10 bp (dsDNA, 5-methyl-C at position 5 of both strands (mC105, mC115)) DNA 1: GGATCGGCTC DNA 2: GAGCCGATCC ?
3.87
